- tested target: Kallikrein-7 (Homo sapiens) (UniProt P49862)
- Sequence (P49862 whole entry, looked up): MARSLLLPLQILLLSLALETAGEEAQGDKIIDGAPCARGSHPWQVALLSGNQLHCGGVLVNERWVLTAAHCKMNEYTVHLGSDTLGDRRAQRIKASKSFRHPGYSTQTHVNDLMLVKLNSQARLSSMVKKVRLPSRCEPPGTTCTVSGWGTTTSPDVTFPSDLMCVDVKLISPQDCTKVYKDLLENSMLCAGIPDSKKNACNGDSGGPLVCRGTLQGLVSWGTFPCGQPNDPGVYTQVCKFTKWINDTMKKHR
- test: activation of human kallikrein-7 proenzyme – biochemical, fluorescence intensity, primary screen (AID 652039)
- test parameters: purified proKLK7, EDANS-DABCYL substrate fluorescence; at 7 µM; active compounds read high; 100% is mature enzyme control, 0% vehicle
The campaign covered roughly 370,000 compounds. About 3,300 (0.89%) were called active. The list comes from a sample in which actives are over-represented; it also holds close analogues and randomly drawn compounds.
Recorded activation for the following compounds
Give your result in % as a bare value.

[[record]]
entry_smiles = "COc1ccc(CCNC(=O)CSc2nc3c([nH]2)c(=O)n(C)c(=O)n3C)cc1"
quantity_name = "activation"
value_units = "%"
recorded_result = 0.4


Which measured activation value corresponds to COC(=O)C[C@@H]1CC[C@@H]2[C@@H](COc3ccc(NC(=O)Nc4ccc(F)c(F)c4)cc3C(=O)N2C)O1 ?
0.06

I am curious: what activation value has been reported for COc1ccc(N2CCN(CCNS(=O)(=O)c3ccc(Cl)s3)CC2)cc1 ?
-0.36

Consider the compound shown here: O=C(c1cccc(C(F)(F)F)c1)N1CC[C@H]2[C@H](CCCN2Cc2cc(F)cc(F)c2)C1 What is its recorded activation?
0.19

// activation lookup, key: CC1(C)Oc2ccc3ccc(=O)oc3c2/C(=N/O)C1=O
206

* * *

- tested target: Kallikrein-7 (Homo sapiens)
- test: activation of human kallikrein-7 proenzyme – biochemical, fluorescence intensity, primary screen (AID 652039)
- test parameters: purified proKLK7, EDANS-DABCYL substrate fluorescence; at 7 µM; active compounds read high; 100% is mature enzyme control, 0% vehicle
Among all 370,000 compounds or so, about 3,300 (0.89%) were called active. The sample holds actives, similar compounds and a random draw of the others, so the mix is not that of the screen.
quantity name: activation

Known results for compounds:
[[record]]
compound = "Cc1nc(N2CCOCC2)nc2c1CCCC2"
quantity_name = "activation"
recorded_result = "0.32% (inactive)"

[[record]]
compound = "CN(C(=O)COc1ccccc1)c1nnc(-c2ccncc2)s1"
quantity_name = "activation"
recorded_result = "15.3% (active)"

[[record]]
compound = "CC(=O)C1(C(=O)Nc2nccs2)CC(c2ccccc2C(F)(F)F)=NO1 (stereo unspecified)"
quantity_name = "activation"
recorded_result = "1.07% (inactive)"

[[record]]
compound = "COc1cccc(-c2nnc(N(C)C(=O)c3ccno3)s2)c1"
quantity_name = "activation"
recorded_result = "0.14% (inactive)"


Next item in the queue.
Which activation reading was recorded for the compound Nn1c(SCC(=O)Nc2ccc(S(N)(=O)=O)cc2)nnc1-c1n[nH]c2c1CCC2 ?
-0.51% (inactive)

* * *

- tested target: Kallikrein-7 (Homo sapiens)
- test: activation of human kallikrein-7 proenzyme – biochemical, fluorescence intensity, primary screen (AID 652039)
- test parameters: purified proKLK7, EDANS-DABCYL substrate fluorescence; at 7 µM; 100% is mature enzyme control, 0% vehicle
In all, about 370,000 compounds went through this assay and about 3,300 (0.89%) were called active.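 The calls were made as follows: active = activation above the mean of all tested compounds plus 3 SD, computed per campaign excluding outliers beyond control limits (cut at about 13% in these data); inactive = the rest.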 Only a selection was taken, and actives are over-represented in it overall.
Hi there, use one of these labels in your reply, thanks! T (active), F (inactive)

[[record]]
compound = "COc1ccc2c(c1)CCc1cn3ncc(C#N)c3nc1-2"
class_assignment = "T"


Please share the test call associated with Cc1c(C)c2c(OCC(=O)N[C@@H](C(=O)O)c3ccccc3)cc3c(c2oc1=O)CCC(C)(C)O3 .
T

Could you check what this test reported for Cc1cc(=O)oc2c3c(cc(OCC(=O)NCC(O)c4ccccc4)c12)OC(C)(C)CC3 (stereo not given) ?
F

Just curious, what result did Cc1nc(N=C(N)N)nc2c(C)cccc12 get here?
F

* * *

Here, each record is paired with measured activation data.
- tested target: Kallikrein-7 (Homo sapiens) (UniProt P49862)
- test: activation of human kallikrein-7 proenzyme – biochemical, fluorescence intensity, primary screen (AID 652039)
- test parameters: purified proKLK7, EDANS-DABCYL substrate fluorescence; at 7 µM; active compounds read high; 100% is mature enzyme control, 0% vehicle
Out of some 370,000 compounds screened, about 3,300 (0.89%) were called active. Many of the other results were omitted from the sample, so actives are more common in it than they were.
Please give a number only; it is taken to be in %.

Examples with their reported activation follow.
[[record]]
molecule = "O=C(NN1CCOCC1)c1cccc(F)c1"
tested_target = "Kallikrein-7 (Homo sapiens) (UniProt P49862)"
value_units = "%"
recorded_result = 0.32

[[record]]
molecule = "Cc1ccccc1NC(=O)COC(=O)c1ccc(Sc2ncn[nH]2)c([N+](=O)[O-])c1"
tested_target = "Kallikrein-7 (Homo sapiens) (UniProt P49862)"
value_units = "%"
recorded_result = 0.34

[[record]]
molecule = "O=S(=O)(c1ccccc1)N1CCC(c2nc3ccccc3o2)CC1"
tested_target = "Kallikrein-7 (Homo sapiens) (UniProt P49862)"
value_units = "%"
recorded_result = -0.13

[[record]]
molecule = "COc1cccc(-c2nc3n(n2)C(c2ccccc2Cl)C(C(N)=O)=C(C)N3)c1 (stereo unspecified)"
tested_target = "Kallikrein-7 (Homo sapiens) (UniProt P49862)"
value_units = "%"
recorded_result = 0.67


// returns reported activation for input CN(C(=O)CCn1c(=S)oc2ccccc21)C1CCCCC1
-0.28

I would be grateful if you could share the reported activation for COc1ccc(C2CC(c3cccs3)Nc3nnnn32)cc1 (stereo unspecified) .
0.65

* * *

- tested target: Kallikrein-7 (Homo sapiens)
- test: activation of human kallikrein-7 proenzyme – biochemical, fluorescence intensity, primary screen (AID 652039)
- test parameters: purified proKLK7, EDANS-DABCYL substrate fluorescence; at 7 µM; active compounds read high; 100% is mature enzyme control, 0% vehicle
Out of some 370,000 compounds screened, about 3,300 (0.89%) were called active. Many of the other results were omitted from the sample, so actives are more common in it than they were.
quantity name: activation (%)
Kindly answer with a numeric value in %, unit omitted.

Some solved entries appear below for comparison.
[[record]]
compound = "O=C(NC1CCCCN(Cc2ccc(Cl)cc2)C1=O)c1ccc(Br)cc1 (stereo not given)"
tested_target = "Kallikrein-7 (Homo sapiens)"
recorded_result = -0.15

[[record]]
compound = "C/C(=C\\c1ccccc1)C1NC(=O)c2c(sc3c2CCCC3)N1 (stereo not given)"
tested_target = "Kallikrein-7 (Homo sapiens)"
recorded_result = 12.6

[[record]]
compound = "O=C(NCCc1c[nH]c2ccccc12)OCc1cn(-c2c(F)cccc2F)nn1"
tested_target = "Kallikrein-7 (Homo sapiens)"
recorded_result = 0.33

[[record]]
compound = "C=C(C)C#CC(Cc1ccccc1)NCC1CC1 (stereo not given)"
tested_target = "Kallikrein-7 (Homo sapiens)"
recorded_result = 0.49


For CCCNC(=O)Nc1ccc2c(c1)C(=O)N(C)[C@H]1CC[C@H](CC(=O)NCC3CCCCC3)O[C@@H]1CO2 , what is its reported activation?
0.14

* * *

Quick list: activation per entry.
- tested target: Kallikrein-7 (Homo sapiens)
- test: activation of human kallikrein-7 proenzyme – biochemical, fluorescence intensity, primary screen (AID 652039)
- test parameters: purified proKLK7, EDANS-DABCYL substrate fluorescence; at 7 µM; active compounds read high; 100% is mature enzyme control, 0% vehicle
Hit rate of the full screen: of about 370,000 compounds, about 3,300 (0.89%) were called active. For the sample, actives were picked, then their nearest neighbours and some compounds at random.
Give just the number in %; leave the unit off.

Examples with their reported activation follow.
[[record]]
compound = "CCOC(=O)c1c(NC(=S)Nc2ccccc2)sc2c1CCN(C)C2"
value_units = "%"
recorded_result = 33.8

[[record]]
compound = "O=C(Nc1nncs1)c1cccc(S(=O)(=O)N2CCCCC2)c1"
value_units = "%"
recorded_result = 0.4

[[record]]
compound = "O=C(c1cccnc1)N(c1cc2sc(=O)oc2c2ccccc12)S(=O)(=O)c1ccccc1"
value_units = "%"
recorded_result = -0.78

[[record]]
compound = "CC1CC(C)CN(S(=O)(=O)c2cccc(C(=O)N3C(=O)c4cccc(N)c4C3=O)c2)C1 (stereo not drawn)"
value_units = "%"
recorded_result = 20.5

[[record]]
compound = "N#CC1=C(N)Oc2c(sc3ccccc23)C1c1ccco1 (stereo not drawn)"
value_units = "%"
recorded_result = 15


What activation value was documented for this compound, CC(=O)N1CCN(Cc2cc(=O)oc3cc(C)ccc23)CC1 ?
0.22

Entry under review: CC1CCCN(C(=O)c2cc(-c3ccco3)nc3ccccc23)C1 (stereo not drawn) . Reported activation?
38.3

* * *

Listed next: entries and their corresponding activation.
- tested target: Kallikrein-7 (Homo sapiens)
- test: activation of human kallikrein-7 proenzyme – biochemical, fluorescence intensity, primary screen (AID 652039)
- test parameters: purified proKLK7, EDANS-DABCYL substrate fluorescence; at 7 µM; active compounds read high; 100% is mature enzyme control, 0% vehicle
Among all 370,000 compounds or so, about 3,300 (0.89%) were called active. The entries come from a sample that favours actives as a whole.
Output spec: scalar in %, unitless text.

[[record]]
compound = "COc1ccc(CSc2nnc(SCC(=O)Nc3ccccc3C(F)(F)F)s2)cc1"
tested_target = "Kallikrein-7 (Homo sapiens)"
recorded_result = 0.45


For O=C(CCCCCN1C(=O)C2C3C=CC(C3)C2C1=O)Nc1ccccn1 (stereo not drawn) , what is its reported activation?
0.09

Need activation of Cc1cc(C)c(C#N)c(SCC(=O)NN2CC(=O)N(c3ccccc3F)CC2=O)n1 , thanks.
68.7

Can you look up the measured activation of C=CCN(C(=O)[C@@H](CCCC)[C@@H](O)c1ccc(Cl)cc1)c1ccccc1 for me?
0.33

GET /values?readout=activation&item= CN1C[C@]2(C=C3CCCCC3n3c(=O)n(-c4ccccc4)c(=O)n32)N=C1NC(=O)c1ccccc1 (stereo partly drawn)
0.02

Need activation of Cc1nc2ccc(C(=O)N3CCN(C(=O)C(C)(C)C)CC3)cc2n1C1CCCC1 , thanks.
-0.33

Hey, just so you know, these numbers are from PubChem BioAssay AID652039.
